studyTarget: Mu-type opioid receptor (Homo sapiens)
conditionDescription: Compound concentration 10 µM
Description: PDSP Primary Binding target: OPRM1 - Compounds are tested at 10 uM concentration, plate are incubated at room temperature in the dark for 90 minutes. Reaction are stopped by vacuum filtration onto 0.3% polyethyleneimine soaked filter mats using Filtermate harvester. Scintilation cocktail is then melted onto microwave-dried filters on a hot plate and the radio activity is counted in Microbia counter.
Consider the following compounds; for each one, report its inhibition.
Return type: number; implicit unit %.

Specify inhibition for `CN(C)C(=O)N[C@H]1CC[C@H](CCN2CCN(c3cccc(Cl)c3Cl)CC2)CC1` and stop.
4.29

Specify inhibition for `O=C(Nc1ccc(Cl)cc1)Nc1cccc(-c2cccc(N3CCCC3)n2)c1` and stop.
-5.02

Specify inhibition for `C[C@H](Cc1cc2c(c(C(N)=O)c1)N(CCCO)CC2)NCCOc1ccccc1OCC(F)(F)F` and stop.
38.8

Specify inhibition for `O=C1O[C@]2(CC[C@H](C(=O)Nc3ccn(-c4ccccc4F)n3)CC2)c2cnccc21` and stop.
4.44

Specify inhibition for `O=c1ccn([C@@H]2O[C@H](COP(=O)(O)OP(=O)(O)O)[C@@H](O)[C@H]2O)c(=O)[nH]1` and stop.
44

Specify inhibition for `CN1C(=O)[C@@H](NC(=O)c2cc3ccccc3[nH]2)N=C(c2ccccc2)c2ccccc21` and stop.
5.76

Specify inhibition for `CNC[C@H](O)c1ccc(O)c(O)c1` and stop.
-2.25

Specify inhibition for `CCOC(=O)c1cc(C#N)c(N2CCC(C(=O)NS(=O)(=O)Cc3ccccc3)CC2)nc1C` and stop.
4.87

Specify inhibition for `O=C(O)c1cc(-c2ccc(C3CCNCC3)cc2)c2ccc(-c3ccc(C(F)(F)F)cc3)cc2c1` and stop.
26.5

====

studyTarget: Sigma non-opioid intracellular receptor 1 (Homo sapiens)
conditionDescription: Compound concentration 10 µM; call rule not given here
Form entry, call: pick from active, inactive

So what was the verdict on `NC(=O)[C@@H]1CCCN1C(=O)[C@H](Cc1c[nH]cn1)NC(=O)[C@@H]1CCC(=O)N1` in this test?
inactive

So what was the verdict on `Cc1cc(C)cc(-c2cnc3cc(Cl)c(-c4cccc(O)c4)cc3c2OCCCN)c1` in this test?
active

So what was the verdict on `O=C(O)c1n[nH]c2c1C[C@H]1C[C@@H]21` in this test?
inactive

So what was the verdict on `Nc1nc(NCCc2ccc(O)cc2)nc2nc(-c3ccco3)nn12` in this test?
inactive

So what was the verdict on `CCOC(=O)c1cc(C#N)c(N2CCC(C(=O)NS(=O)(=O)Cc3ccccc3)CC2)nc1C` in this test?
inactive

So what was the verdict on `CC(C)(N)C(=O)N[C@H](COCc1ccccc1)C(=O)N1CCC2(CC1)CN(S(C)(=O)=O)c1ccccc12` in this test?
inactive

So what was the verdict on `Cc1ccc(O)c([C@H](CCN(C(C)C)C(C)C)c2ccccc2)c1` in this test?
active

So what was the verdict on `Cc1nc(-c2ccc(C(F)(F)F)cc2)sc1COc1ccc([C@H](CC(=O)O)c2ccon2)cc1` in this test?
inactive

So what was the verdict on `COc1ccnc(N2CCC3(CCCN(Cc4c[nH]c5ccccc45)C3=O)CC2)n1` in this test?
inactive

So what was the verdict on `CN[C@@H]1CCc2[nH]c3ccc(C(N)=O)cc3c2C1` in this test?
inactive

====

studyTarget: UniProt P25021
Sequence (P25021 whole entry): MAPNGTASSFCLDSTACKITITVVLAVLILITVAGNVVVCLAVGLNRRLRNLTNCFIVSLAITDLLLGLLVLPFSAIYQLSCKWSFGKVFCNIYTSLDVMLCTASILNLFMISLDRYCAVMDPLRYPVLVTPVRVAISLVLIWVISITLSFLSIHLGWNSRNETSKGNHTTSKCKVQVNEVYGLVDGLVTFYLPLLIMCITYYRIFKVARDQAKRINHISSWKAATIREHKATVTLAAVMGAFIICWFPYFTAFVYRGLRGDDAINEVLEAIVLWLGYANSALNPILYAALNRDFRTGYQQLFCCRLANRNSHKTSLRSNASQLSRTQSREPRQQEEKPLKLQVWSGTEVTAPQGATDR
conditionDescription: Compound concentration 10 µM
Description: PDSP Primary Binding target: HRH2 - Compounds are tested at 10 uM concentration, plate are incubated at room temperature in the dark for 90 minutes. Reaction are stopped by vacuum filtration onto 0.3% polyethyleneimine soaked filter mats using Filtermate harvester. Scintilation cocktail is then melted onto microwave-dried filters on a hot plate and the radio activity is counted in Microbia counter.
Consider the following compounds; for each one, report its inhibition.
Return type: number; implicit unit %.

Specify inhibition for `Clc1cccc(COc2cncc(N3CCNCC3)n2)c1` and stop.
14.4

Specify inhibition for `Cc1c(C2=CCN(C(=O)N(C)C(C)C)CC2)nnn1-c1cccnc1F` and stop.
29.8

Specify inhibition for `O=C(Cc1ccccc1)Nc1nc2ccc(Cl)cc2c2nc(-c3ccco3)nn12` and stop.
13.8

Specify inhibition for `O=C1O[C@]2(CC[C@H](C(=O)Nc3ccn(-c4ccccc4F)n3)CC2)c2cnccc21` and stop.
2.76

Specify inhibition for `C[C@H](NC[C@H](O)CP(=O)(O)CC1CCCCC1)c1ccc(Cl)c(Cl)c1` and stop.
26

Specify inhibition for `O=C(O)C1CN(Cc2ccc(OCc3ccc(Cl)c(Cl)c3)cc2)C1` and stop.
29.6

Specify inhibition for `COc1ccc(CNC(=O)c2cc(-c3cncc(Cl)c3)cnc2-c2ccccn2)nc1OC` and stop.
-5.76

Specify inhibition for `Cc1cc(C(=O)N2Cc3cnn(C)c3Nc3ccccc32)ccc1CNC(=O)N1CCC[C@H]1C(=S)N1CCCN(C)CC1` and stop.
46.9

Specify inhibition for `Cc1cc([C@@H](C)Nc2cccc(-c3cc(C)c(C(=O)N[C@@H](C)C(=O)O)c(C)c3)c2)ccc1Cl` and stop.
22.5

====

studyTarget: Alpha-1D adrenergic receptor (Homo sapiens)
conditionDescription: Compound concentration 10 µM; call rule not given here
Form entry, call: pick from 1 = active, -1 = inactive

So what was the verdict on `CCOC(=O)c1cc(C#N)c(N2CCC(C(=O)NS(=O)(=O)Cc3ccccc3)CC2)nc1C` in this test?
-1

So what was the verdict on `N#Cc1ccc2[nH]cc(CCCCN3CCN(c4ccc5oc(C(N)=O)cc5c4)CC3)c2c1` in this test?
1

So what was the verdict on `S=C(NCCCc1c[nH]cn1)NCCCN(Cc1ccc(Cl)c(Cl)c1)c1ccc(Br)cn1` in this test?
1

So what was the verdict on `COc1cccc(-c2c(C)n(Cc3c(F)cccc3C(F)(F)F)c(=O)n(C[C@H](NCCCC(=O)O)c3ccccc3)c2=O)c1F` in this test?
-1

So what was the verdict on CC(C)NCC(O)COc1cccc2ccccc12 (stereo unspecified) in this test?
-1

So what was the verdict on `CCCNS(=O)(=O)Nc1ncnc(OCCOc2ncc(Br)cn2)c1-c1ccc(Br)cc1` in this test?
-1

So what was the verdict on CN1CCCC(n2nc(Cc3ccc(Cl)cc3)c3ccccc3c2=O)CC1 (stereo unspecified) in this test?
1

So what was the verdict on `CCc1cc2c(cc1CC)CC(NC[C@H](O)c1ccc(O)c3[nH]c(=O)ccc13)C2` in this test?
1

So what was the verdict on `CCc1cc(C(C)=O)c(O)cc1OCCCCCC(C)(C)c1nn[nH]n1` in this test?
-1

So what was the verdict on `CN(C)C(=O)C(CCN1CCC(O)(c2ccc(Cl)cc2)CC1)(c1ccccc1)c1ccccc1` in this test?
-1

So what was the verdict on `COc1ccc2[nH]cc(CCNC(C)=O)c2c1` in this test?
-1

So what was the verdict on `c1cc(CN2CCCNCCNCCCNCC2)ccc1CN1CCCNCCNCCCNCC1` in this test?
-1

So what was the verdict on `Cc1cc(NC(=O)Nc2ccc(N(C)C)cc2)c2cc(F)cc(F)c2n1` in this test?
-1

So what was the verdict on `CNc1nc(NCc2ccc(NS(C)(=O)=O)cc2Cl)cc(-c2ccccn2)n1` in this test?
-1

So what was the verdict on `Cc1cc(C)c(N)c(C#Cc2cccc(F)c2)n1` in this test?
-1

So what was the verdict on `CCCCc1nc(Cl)c(CO)n1Cc1ccc(-c2ccccc2-c2nnn[nH]2)cc1` in this test?
-1

So what was the verdict on `CN1CCC(=C2c3ccccc3CC(=O)c3sccc32)CC1` in this test?
-1

So what was the verdict on `CC(C)(N)C(=O)N[C@H](COCc1ccccc1)C(=O)N1CCC2(CC1)CN(S(C)(=O)=O)c1ccccc12` in this test?
-1

So what was the verdict on `C[C@H](NC[C@H](O)CP(=O)(O)CC1CCCCC1)c1ccc(Cl)c(Cl)c1` in this test?
-1

So what was the verdict on `CS(=O)(=O)NC[C@H]1CC[C@H](Nc2nc3c(s2)CCSc2ccccc2-3)CC1` in this test?
-1

So what was the verdict on `CCCCCCCCCCCCCCCCOC[C@H](COP(=O)([O-])OCC[N+](C)(C)C)OC(C)=O` in this test?
1

====

studyTarget: Muscarinic acetylcholine receptor M5 (Homo sapiens) (UniProt P08912)
Sequence (P08912 whole entry): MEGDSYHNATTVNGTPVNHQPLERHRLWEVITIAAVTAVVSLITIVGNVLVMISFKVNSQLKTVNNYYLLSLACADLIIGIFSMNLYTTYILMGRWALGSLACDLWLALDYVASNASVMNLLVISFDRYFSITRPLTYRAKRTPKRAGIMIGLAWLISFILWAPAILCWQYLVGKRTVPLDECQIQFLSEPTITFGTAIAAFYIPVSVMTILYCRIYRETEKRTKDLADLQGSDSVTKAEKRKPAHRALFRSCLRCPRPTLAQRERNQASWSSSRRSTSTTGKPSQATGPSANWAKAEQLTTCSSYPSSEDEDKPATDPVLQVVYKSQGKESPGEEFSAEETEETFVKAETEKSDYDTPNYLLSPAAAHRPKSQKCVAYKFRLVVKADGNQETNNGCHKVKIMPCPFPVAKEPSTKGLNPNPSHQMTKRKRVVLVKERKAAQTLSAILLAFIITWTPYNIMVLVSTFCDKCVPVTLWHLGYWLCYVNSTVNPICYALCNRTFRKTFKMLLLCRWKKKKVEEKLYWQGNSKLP
conditionDescription: Compound concentration 10 µM
Description: PDSP Primary Binding target: CHRM5 - Compounds are tested at 10 uM concentration, plate are incubated at room temperature in the dark for 90 minutes. Reaction are stopped by vacuum filtration onto 0.3% polyethyleneimine soaked filter mats using Filtermate harvester. Scintilation cocktail is then melted onto microwave-dried filters on a hot plate and the radio activity is counted in Microbia counter.
Given measured inhibition, output met if it is greater than or equal to 10% and not met if not.

Assess whether reported inhibition for `CCCNS(=O)(=O)Nc1ncnc(OCCOc2ncc(Br)cn2)c1-c1ccc(Br)cc1` sits at 10% or higher.
met

Assess whether reported inhibition for `Clc1cccc(Cl)c1NC1=NCCN1` sits at 10% or higher.
not met

Assess whether reported inhibition for `CCN(CC)CCCCC1CCN(CC(=O)N2c3ccccc3C(=O)Nc3cccnc32)CC1` sits at 10% or higher.
met

Assess whether reported inhibition for `CCCCN1CCC(COC(=O)c2cc(Cl)c(N)c3c2OCCO3)CC1` sits at 10% or higher.
not met

Assess whether reported inhibition for `CCCCc1nc(Cl)c(CO)n1Cc1ccc(-c2ccccc2-c2nnn[nH]2)cc1` sits at 10% or higher.
not met

Assess whether reported inhibition for `c1nc(CC2CCNCC2)c[nH]1` sits at 10% or higher.
not met

Assess whether reported inhibition for `CNc1nc(NCc2ccc(NS(C)(=O)=O)cc2Cl)cc(-c2ccccn2)n1` sits at 10% or higher.
not met

Assess whether reported inhibition for CC(C)NCC(O)c1ccc(N)c(C#N)c1 (stereo unspecified) sits at 10% or higher.
not met

Assess whether reported inhibition for `Cc1nc(C(=O)N2CCC[C@H]2Cc2nnc(-c3ccccc3)o2)c(-c2ccccc2F)s1` sits at 10% or higher.
met

Assess whether reported inhibition for `COc1cc2nc(N3CCN(C(=O)c4ccco4)CC3)nc(N)c2cc1OC` sits at 10% or higher.
not met

Assess whether reported inhibition for `COc1ccc(S(=O)(=O)c2cc(OC)ccc2S(=O)(=O)c2ccc([C@H](C)NS(C)(=O)=O)cc2)cc1` sits at 10% or higher.
not met

Assess whether reported inhibition for `COC(=O)[C@H]1[C@H]2C[C@H]3c4[nH]c5ccccc5c4CCN3C[C@H]2CC[C@@H]1O` sits at 10% or higher.
not met

Assess whether reported inhibition for `N#Cc1c(N)nc(SCC(N)=O)c(C#N)c1-c1ccc(OCC2CC2)cc1` sits at 10% or higher.
met

Assess whether reported inhibition for `CC(C)[C@H](CO)Nc1nc(Nc2cccc(Cl)c2)c2ncn(C(C)C)c2n1` sits at 10% or higher.
met

Assess whether reported inhibition for CCOC(=O)c1c(C)[nH]c2ccc3c(c12)CN1CCc2cc(OC)ccc2C1O3 (stereo unspecified) sits at 10% or higher.
not met

Assess whether reported inhibition for `CC(C)NC(=O)c1ccc(C#Cc2ccncc2)cn1` sits at 10% or higher.
met

Assess whether reported inhibition for `COc1ccccc1N1CCN(CCCCNC(=O)c2ccc3ccccc3c2)CC1` sits at 10% or higher.
met

Assess whether reported inhibition for `COc1cccc([C@H](O)C2CCN(CCc3ccc(F)cc3)CC2)c1OC` sits at 10% or higher.
not met

Assess whether reported inhibition for `CCCCC#Cc1nc(NC)c2ncn([C@@H]3O[C@H](CO)[C@@H](O)[C@H]3O)c2n1` sits at 10% or higher.
met

Assess whether reported inhibition for `COc1ccc(NC(=O)c2ccc(-c3ccc(-c4noc(C)n4)cc3C)cc2)cc1OCCN(C)C` sits at 10% or higher.
met

Assess whether reported inhibition for `N#Cc1ccc(NC(=O)Nc2ccccc2Br)c2nn[nH]c12` sits at 10% or higher.
not met
